So I've got a bunch of compounds here, and I need their E^11 values.
# assay.info: UV absorption properties (λmax and specific absorbance E 1/1) of the light protection agents
# Type: physicochemical
# Design: unit not given here
# measurement.conditions: Table 1, specific absorbance at λmax
Output spec: single numeric token, no unit.

In: Report E^11 for COC(=O)C(C#N)=C1Nc2ccccc2O1 please.
Out: 1778

In: Report E^11 for Cc1ccc2c(c1)NC(=C(C#N)C#N)N2 please.
Out: 2055

In: Report E^11 for COc1ccc2c(c1)NC(=C(C#N)C#N)N2 please.
Out: 1784

In: Report E^11 for COC(=O)C(C#N)=C1Nc2ccccc2S1 please.
Out: 1723

In: Report E^11 for N#CC(C#N)=C1Nc2ccccc2N1 please.
Out: 2297

In: Report E^11 for COC(=O)C(C#N)=C1Nc2ccc(C)cc2N1 please.
Out: 1854
